src = ChEMBL document CHEMBL5370667

# PROTOCOL DETAILS: Antiproliferative activity against mouse L929 cells assessed as cell growth inhibition
# Type: toxicity, cell-based
PROPERTY MEASURED: IC50 (µM)
// note: answer is a bare numeric in µM

C/C(=C\c1csc(C)n1)[C@@H]1C[C@@H]2O[C@]2(C)CCC[C@H](C)[C@H](O)[C@@H](C)C(=O)C(C)(C)[C@@H](O)CC(=O)O1 [PATUPILONE]    0.00043
C[C@@]12CC3=C(C(=O)C=CC3=O)[C@@H]3OC(=O)[C@@]4(CC[C@@H]1O2)O[C@@H]34    6

Then there is this compound:
Task: // returns reported IC50 for input `C[C@@]12Cc3c(O)ccc(O)c3[C@@H]3OC(=O)[C@@]4(CC[C@@H]1O2)O[C@@H]34`
Result: 2.1
